Assay: Bupivacaine PK, nonlinear mixed-effect modeling (population PK method)
Type: in vivo, human
Settings: human, plasma; population PK method; spine surgery: liposomal bupivacaine 4 mg/kg (6 to <17 y, n = 18) or bupivacaine HCl 2 mg/kg (12 to <17 y, n = 15); read-out: AUC0-∞, geometric mean
Structures can show the parent of a compound that is named as a salt.
Readout label: AUC(0-inf) (ng·h/mL)
# number only, unit ng·h/mL dropped from output

*Q* Look up AUC(0-inf) for this compound: CCCCN1CCCCC1C(=O)Nc1c(C)cccc1C (stereo not shown) [bupivacaine HCl, bupivacaine hydrochloride]
*A* 6400

###

Assay: Bupivacaine PK after local infiltration, noncompartmental analysis (PLAY phase 3 trial, NCT03682302)
Design: species or system human
Conditions: human, in vivo
Counter-ions that a name gives are not always drawn.
Readout label: Tmax

*Q* Look up Tmax for this molecule: CCCCN1CCCCC1C(=O)Nc1c(C)cccc1C (stereo not shown) [bupivacaine HCl, bupivacaine hydrochloride]
*A* ~1 h

###

Test: Bupivacaine PK after local infiltration, noncompartmental analysis (PLAY phase 3 trial, NCT03682302)
Design: species or system human
Conditions: human, in vivo, 2 mg/kg, AUC0-∞, Mean
Where a name gives a salt, the structure may show the parent alone.
Readout label: AUC(0-inf) (ng·h/mL)
# number only, unit ng·h/mL dropped from output

*Q* Look up AUC(0-inf) for this molecule: CCCCN1CCCCC1C(=O)Nc1c(C)cccc1C (stereo not shown) [bupivacaine HCl, bupivacaine hydrochloride]
*A* 5710

###

Test: Bupivacaine PK after local infiltration, noncompartmental analysis (PLAY phase 3 trial, NCT03682302)
Set-up: species or system human
Conditions: human, in vivo, 2 mg/kg, Vd/F, Geometric mean
Structures can show the parent of a compound that is named as a salt.
Readout label: Vd/F (L)
# number only, unit L dropped from output

*Q* Look up Vd/F for this molecule: CCCCN1CCCCC1C(=O)Nc1c(C)cccc1C (stereo not shown) [bupivacaine HCl, bupivacaine hydrochloride]
*A* 201

###

Assay: Bupivacaine PK, nonlinear mixed-effect modeling (population PK method)
Type: in vivo, human
Settings: human, plasma; population PK method; spine surgery: liposomal bupivacaine 4 mg/kg (6 to <17 y, n = 18) or bupivacaine HCl 2 mg/kg (12 to <17 y, n = 15); read-out: Early Cmax, geometric mean
Structures can show the parent of a compound that is named as a salt.
Readout label: Cmax
Please don't drop the unit; write it after the number.

*Q* Look up Cmax for this compound: CCCCN1CCCCC1C(=O)Nc1c(C)cccc1C (stereo not shown) [bupivacaine HCl, bupivacaine hydrochloride]
*A* 444 ng/mL

###

Experiment: Bupivacaine PK after local infiltration, noncompartmental analysis (PLAY phase 3 trial, NCT03682302)
Set-up: species or system human
Conditions: human, in vivo, 2 mg/kg, Vd/F, Mean
Where a name gives a salt, the structure may show the parent alone.
Readout label: Vd/F (L)
# number only, unit L dropped from output

*Q* Look up Vd/F for this molecule: CCCCN1CCCCC1C(=O)Nc1c(C)cccc1C (stereo not shown) [bupivacaine HCl, bupivacaine hydrochloride]
*A* 227

###

Test: Bupivacaine PK, nonlinear mixed-effect modeling (population PK method)
Type: in vivo, human
Conditions: human, plasma; population PK method; spine surgery: liposomal bupivacaine 4 mg/kg (6 to <17 y, n = 18) or bupivacaine HCl 2 mg/kg (12 to <17 y, n = 15); read-out: t1/2, geometric mean (converted)
Method: The sample size was determined on the basis of the number of patients needed to characterize the PK profile of liposomal bupivacaine in pediatric patients per FDA requirements. […] Descriptive statistics (number, mean, standard deviation [SD], median, minimum, maximum) were calculated for continuous data; tabulations (number and percentage) were calculated for categorial data. […] PK measures were assessed by noncompartmental analysis. […]
Where a name gives a salt, the structure may show the parent alone.
Readout label: half-life (min)
# number only, unit min dropped from output

*Q* Look up half-life for this molecule: CCCCN1CCCCC1C(=O)Nc1c(C)cccc1C (stereo not shown) [bupivacaine HCl, bupivacaine hydrochloride]
*A* 390
